assay.target: UniProtKB P48067
Sequence (P48067 whole entry): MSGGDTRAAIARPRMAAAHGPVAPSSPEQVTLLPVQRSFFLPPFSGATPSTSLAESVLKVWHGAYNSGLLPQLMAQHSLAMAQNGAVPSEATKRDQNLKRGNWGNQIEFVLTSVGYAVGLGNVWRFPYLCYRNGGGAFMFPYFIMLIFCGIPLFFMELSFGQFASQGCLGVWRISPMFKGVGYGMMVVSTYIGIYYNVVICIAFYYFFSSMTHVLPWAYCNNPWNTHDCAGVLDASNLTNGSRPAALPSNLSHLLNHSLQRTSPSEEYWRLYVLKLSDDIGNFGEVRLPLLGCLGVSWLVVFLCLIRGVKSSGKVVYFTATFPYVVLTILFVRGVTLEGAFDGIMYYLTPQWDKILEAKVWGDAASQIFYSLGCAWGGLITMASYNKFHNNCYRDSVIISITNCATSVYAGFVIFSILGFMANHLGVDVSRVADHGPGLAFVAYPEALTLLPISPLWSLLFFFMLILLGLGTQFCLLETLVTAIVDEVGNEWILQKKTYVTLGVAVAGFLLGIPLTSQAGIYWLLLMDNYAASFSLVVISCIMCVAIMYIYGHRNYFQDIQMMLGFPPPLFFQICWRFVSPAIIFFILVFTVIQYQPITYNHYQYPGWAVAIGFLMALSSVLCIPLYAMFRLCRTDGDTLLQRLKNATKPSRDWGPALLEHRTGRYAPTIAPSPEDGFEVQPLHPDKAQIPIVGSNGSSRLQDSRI
method: Radioligand binding assays using recombinant CHO cell membranes expressing human GlyT1
test.context: read-out: radioligand binding Kiapp
Counter-ions that a name gives are not always drawn.
Reported Ki values follow for various compounds

These recorded examples may help you get a feel for the data.
>>> result("Cn1cnc(S(=O)(=O)NCc2cccc(C(Cc3ccccc3)C(N)=O)c2)c1 (centres unmarked)")
"≤ 10000 nM"
>>> result("Cn1cc(S(=O)(=O)NCCOc2cc(C(CN)Cc3ccccc3)ccc2F)cn1 (centres unmarked) [Example 3, hydrochloride]")
"≤ 100 nM"
>>> result("CN(C)CC(Cc1ccccc1)c1cccc(OCCNS(=O)(=O)c2cnn(C)c2)c1 (centres unmarked)")
"≤ 100 nM"
>>> result("CN(C)CC(Cc1ccccc1)c1cccc(CNS(=O)(=O)c2cn(C)cn2)c1 (centres unmarked)")
"≤ 1000 nM"
>>> result("O=C1CC(Cc2ccccc2)(c2cccc(OCCNS(=O)(=O)CC3CC3)c2)CN1 (centres unmarked)")
"≤ 10000 nM"
>>> result("Cn1cc(S(=O)(=O)NCCOc2cccc(C(CN)Cc3cc(F)cc(F)c3)c2)cn1 (centres unmarked) [Example 7, hydrochloride]")
"≤ 1000 nM"

Query: Requested field: Ki. Item: Cn1cc(S(=O)(=O)NCc2cccc(C(Cc3ccccc3)CN3CCC3)c2)cn1 (centres unmarked) [Example 37, hydrochloride]
Reply: ≤ 1000 nM

Query: Item: CN1CCCC(Cc2ccccc2)(c2cccc(OCCNS(=O)(=O)CC3CC3)c2)C1 (centres unmarked)
Reply: ≤ 10000 nM

Query: Item: CN1CC(Cc2ccccc2)(c2ccc(F)c(OCCN(C)S(=O)(=O)c3cn(C)cn3)c2)C1
Reply: ≤ 1000 nM

Query: Item: Cn1cc(S(=O)(=O)NCc2cccc(C(Cc3ccccc3)C(N)=O)c2)cn1 (centres unmarked)
Reply: ≤ 10000 nM

Query: Item: Cn1cnc(S(=O)(=O)NCCOc2cccc(C3(Cc4ccccc4)CCNC3)c2)c1 (centres unmarked)
Reply: ≤ 100 nM
